# assaySummary: Compound cytotoxicity, XTT-based colorimetric assay
# Format: cell-based
# protocolConditions: human, uninfected MT2 cells, day 4, XTT
outcomeMeasure: CC50 at 4 day

# molecule, outcomeMeasure, observedResult
data = [
    ("O=C(Cn1ccc(C2CC2)n1)N[C@@H](Cc1cc(F)cc(F)c1)c1nc2cc(-c3cc(F)ccc3F)ccc2c(=O)n1-c1ccc(S(=O)(=O)N2CCOCC2)cc1", "CC50 at 4 day", "> 1000 nM"),
    ("Cn1nc(NS(C)(=O)=O)c2c(Cl)ccc(-n3c([C@H](Cc4cc(F)cc(F)c4)NC(=O)Cn4nc(C(F)F)c5c4C(F)(F)[C@@H]4C[C@H]54)nc4cc(-c5cc[nH]n5)ccc4c3=O)c21 (atropisomer, axis not shown; (aR))", "CC50 at 4 day", "> 1000 nM"),
    ("Cn1nc(NS(C)(=O)=O)c2c(Cl)ccc(-n3c([C@H](Cc4cc(F)cc(F)c4)NC(=O)Cn4nc(C(F)F)c5c4C(F)(F)[C@@H]4C[C@H]54)nc4cc(-c5ccc(C(=O)O)c(Cl)c5)ccc4c3=O)c21 (atropisomer, axis not shown; (aR))", "CC50 at 4 day", "> 1000 nM"),
    ("O=C(Cn1nc(C(F)F)c2c1C(F)(F)[C@@H]1C[C@H]21)N[C@@H](Cc1cc(F)cc(F)c1)c1nc2cc(-c3cccnc3)ccc2c(=O)n1-c1ccc(S(=O)(=O)N2CCOCC2)cc1", "CC50 at 4 day", "> 1000 nM"),
    ("Cn1nc(NS(C)(=O)=O)c2c(Cl)ccc(-n3c([C@H](Cc4cc(F)cc(F)c4)NC(=O)Cn4nc(C(F)F)c5c4C(F)(F)[C@@H]4C[C@H]54)nc4cc(-c5ccc6c7c(ccnc57)CCO6)ccc4c3=O)c21 (atropisomer, axis not shown; (aR))", "CC50 at 4 day", "> 1000 nM"),
    ("Cn1nc(NS(C)(=O)=O)c2c(Cl)ccc(-n3c([C@H](Cc4cc(F)cc(F)c4)NC(=O)Cn4nc(C(F)F)c5c4C(F)(F)[C@@H]4C[C@H]54)nc4cc(-c5ccccc5-c5ccccc5)ccc4c3=O)c21 (atropisomer, axis not shown; (aR))", "CC50 at 4 day", "> 1000 nM"),
    ("Cn1nc(NS(C)(=O)=O)c2c(Cl)ccc(-n3c([C@H](Cc4cc(F)cc(F)c4)NC(=O)Cn4nc(C(F)F)c5c4C(F)(F)[C@@H]4C[C@H]54)nc4cc(-c5ccc(Cl)c(C(=O)O)c5)ccc4c3=O)c21 (atropisomer, axis not shown; (aR))", "CC50 at 4 day", "> 1000 nM"),
    ("Cc1nn(C)c(C)c1-c1ccc2c(=O)n(-c3ccc(Cl)c4c(NS(C)(=O)=O)nn(C)c34)c([C@H](Cc3cc(F)cc(F)c3)NC(=O)Cn3nc(C(F)F)c4c3C(F)(F)[C@@H]3C[C@H]43)nc2c1 (atropisomer, axis not shown; (aR))", "CC50 at 4 day", "> 1000 nM"),
    ("COc1cccc(-c2ccc3c(=O)n(-c4ccc(Cl)c5c(NS(C)(=O)=O)nn(C)c45)c([C@H](Cc4cc(F)cc(F)c4)NC(=O)Cn4nc(C(F)F)c5c4C(F)(F)[C@@H]4C[C@H]54)nc3c2)n1 (atropisomer, axis not shown; (aR))", "CC50 at 4 day", "> 1000 nM"),
    ("Cn1nc(NS(C)(=O)=O)c2c(Cl)ccc(-n3c([C@H](Cc4cc(F)cc(F)c4)NC(=O)Cn4nc(C(F)F)c5c4C(F)(F)[C@@H]4C[C@H]54)nc4cc(-c5ccc(Cl)cc5F)ccc4c3=O)c21", "CC50 at 4 day", "> 500 nM"),
    ("O=C(Cn1nc(C(F)F)cc1C(F)F)N[C@@H](Cc1cc(F)cc(F)c1)c1nc2cc(-c3ncccn3)ccc2c(=O)n1-c1ccc(Cl)c2c(NS(=O)(=O)C3CC3)nn(CC(F)F)c12", "CC50 at 4 day", "> 500 nM"),
    ("Cn1nc(NS(C)(=O)=O)c2c(Cl)ccc(-n3c([C@H](Cc4cc(F)cc(F)c4)NC(=O)Cn4nc(C(F)F)c5c4C(F)(F)[C@@H]4C[C@H]54)nc4cc(-c5cnc(F)c(F)c5)ccc4c3=O)c21 (atropisomer, axis not shown; (aR))", "CC50 at 4 day", "> 1000 nM"),
    ("COc1ccccc1-c1ccc2c(=O)n(-c3ccc(S(=O)(=O)N4CCOCC4)cc3)c([C@H](Cc3cc(F)cc(F)c3)NC(=O)Cn3ccc(C4CC4)n3)nc2c1", "CC50 at 4 day", "> 1000 nM"),
    ("CCS(=O)(=O)c1ccccc1-c1ccc2c(=O)n(-c3ccc(Cl)c4c(NS(C)(=O)=O)nn(CC(F)F)c34)c([C@H](Cc3cc(F)cc(F)c3)NC(=O)Cn3nc(C(F)F)c4c3C(F)(F)[C@@H]3C[C@H]43)nc2c1", "CC50 at 4 day", "> 500 nM"),
    ("Cc1cccc(-c2ccc3c(=O)n(-c4ccc(Cl)c5c(NS(C)(=O)=O)nn(CC(F)(F)F)c45)c([C@H](Cc4cc(F)cc(F)c4)NC(=O)Cn4nc(C(F)F)c5c4C(F)(F)[C@@H]4C[C@H]54)nc3c2)n1", "CC50 at 4 day", "> 500 nM"),
    ("CC(C)c1cccc(-c2ccc3c(=O)n(-c4ccc(Cl)c5c(NS(C)(=O)=O)nn(C)c45)c([C@H](Cc4cc(F)cc(F)c4)NC(=O)Cn4nc(C(F)F)c5c4C(F)(F)[C@@H]4C[C@H]54)nc3c2)c1 (atropisomer, axis not shown; (aR))", "CC50 at 4 day", "> 1000 nM"),
]

* * *

# System: recombinant NL4-3 virus (nef section replaced with Renilla luciferase gene) in MT-2 cells
# assaySummary: HIV cell culture assay (antiviral activity, luciferase readout)
# Format: cell-based
# protocolConditions: Renilla, NL43, MT-2 cells infected for 4-5 days with recombinant NL4-3 Renilla luciferase virus, serial dilutions of compound
# From the text: HIV cell culture assay—MT-2 cells, 293T cells and the proviral DNA clone of NL4-3 virus were obtained from the NIH AIDS Research and Reference Reagent Program. […] Luciferase was quantitated using the EnduRen Live Cell Substrate from Promega (Madison, Wis.). Antiviral activities of compounds toward the recombinant virus were quantified by measuring luciferase activity in MT-2 cells infected for 4-5 days with the recombinant virus in the presence of serial dilutions of the compound. […]
Category scheme (EC50): L (below 0.8 nM), M (0.8 nM to below 6 nM), H (6 nM or more)

# molecule, targetOrSystem, assignedLabel
rows = [
    ("Cc1ccccc1-c1ccc2c(=O)n(-c3ccc(Cl)c4c(NS(C)(=O)=O)nn(C)c34)c([C@H](Cc3cc(F)cc(F)c3)NC(=O)Cn3nc(C(F)F)c4c3C(F)(F)[C@@H]3C[C@H]43)nc2c1 (atropisomer, axis not shown; (aR)) [Example 88]", "recombinant NL4-3 virus (nef section replaced with Renilla luciferase gene) in MT-2 cells", "L"),
    ("COc1ccc(-c2ccc3c(=O)n(-c4ccc(Cl)c5c(NS(C)(=O)=O)nn(C)c45)c([C@H](Cc4cc(F)cc(F)c4)NC(=O)Cn4nc(C(F)F)c5c4C(F)(F)[C@@H]4C[C@H]54)nc3c2)c(CO)c1 [Example 179]", "recombinant NL4-3 virus (nef section replaced with Renilla luciferase gene) in MT-2 cells", "L"),
    ("Cc1cc(Cl)ccc1-c1ccc2c(=O)n(-c3ccc(Cl)c4c(NS(C)(=O)=O)nn(C)c34)c([C@H](Cc3cc(F)cc(F)c3)NC(=O)Cn3nc(C(F)F)c4c3C(F)(F)[C@@H]3C[C@H]43)nc2c1 (atropisomer, axis not shown; (aR)) [Example 90]", "recombinant NL4-3 virus (nef section replaced with Renilla luciferase gene) in MT-2 cells", "M"),
    ("O=C(Cn1ccc(C2CC2)n1)N[C@@H](Cc1cc(F)cc(F)c1)c1nc2cc(-c3ccccc3Cl)ccc2c(=O)n1-c1ccc(S(=O)(=O)N2CCOCC2)cc1 [Example 145]", "recombinant NL4-3 virus (nef section replaced with Renilla luciferase gene) in MT-2 cells", "H"),
    ("Cn1nc(NS(C)(=O)=O)c2c(Cl)ccc(-n3c([C@H](Cc4cc(F)cc(F)c4)NC(=O)Cn4nc(C(F)F)c5c4C(F)(F)[C@@H]4C[C@H]54)nc4cc(-c5ccc(C(C)(C)C)cc5)ccc4c3=O)c21 [Example 192]", "recombinant NL4-3 virus (nef section replaced with Renilla luciferase gene) in MT-2 cells", "M"),
    ("Cc1ccccc1-c1ccc2c(=O)n(-c3ccc(S(=O)(=O)N4CCOCC4)cc3)c([C@H](Cc3cc(F)cc(F)c3)NC(=O)Cn3ccc(C4CC4)n3)nc2c1 [Example 143]", "recombinant NL4-3 virus (nef section replaced with Renilla luciferase gene) in MT-2 cells", "H"),
    ("O=C(Cn1nc(C(F)F)c2c1C(F)(F)[C@@H]1C[C@H]21)N[C@@H](Cc1cc(F)cc(F)c1)c1nc2cc(-c3cc(F)ccc3F)ccc2c(=O)n1-c1ccc(S(=O)(=O)N2CCOCC2)cc1 [Example 29]", "recombinant NL4-3 virus (nef section replaced with Renilla luciferase gene) in MT-2 cells", "M"),
    ("CS(=O)(=O)Nc1nn(CC(F)(F)F)c2c(-n3c([C@H](Cc4cc(F)cc(F)c4)NC(=O)Cn4nc(C(F)(F)F)c5c4C(F)(F)[C@@H]4C[C@H]54)nc4cc(-c5ccccc5F)ccc4c3=O)ccc(Cl)c12 [Example 182]", "recombinant NL4-3 virus (nef section replaced with Renilla luciferase gene) in MT-2 cells", "M"),
]
